The reported measurements were obtained from the supplement of paper PMC10567573.

B1: CAMK2A (parent)
chain: ILLVGYPPFWDEDQHRLYKQIKAG

# Variants of: B1
# assay: protein stability index of a GFP-peptide fusion (GPS, HEK-293T) (PSI 1-6); higher = more stable;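 also: lentivirally expressed fusions sorted by FACS into six bins by GFP to DsRed ratio, PSI derived from sequencing read proportions per bin multiplied by bin number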
# measurementSetup: c terminus: a fixed tail appended
Property: protein stability index; scope: individual variants

mutationCode	protein stability index
G5Y	1.49
I21F	3.06
H15E	2.14
Y18D	1.97
W10C	1.64
I21Q	2.28
P8D	1.67
